Measured values drawn from patent US11999806B2 for this set.

experiment: Cytotoxicity by CCK-8 in RD cells; type: cell-based; details: human, RD cells, 2.34375 μM, 24 h; read-out: Cell viability (%)
No end group written: not given here.
Measured quantity: viability at 24 h, 2.34375 µM (%)
# output: bare number, implied unit %

Name the recorded viability at 24 h, 2.34375 µM of the item YGRKKRRQRRRGSGEEVRQYCR [ER] in your answer.
98.6

###

assay: Cytotoxicity by CCK-8 in RD cells; format: cell-based; details: human; Table 1 summary; cell line not given; read-out: CC50
No end group written: not given here.
List of CC50 at 24 h values.

Look over these answered cases.
RRRRRRRRAISDLLAS [P1] = > 100 µM
YGRKKRRQRRRGSGEAVREYCK [BP8] = > 200 µM
YGRKKRRQRRRGSGEAVREYCKEK [BP10] = > 200 µM

Name the recorded CC50 at 24 h of the item RRRRRRRREEVRQYCRDQ [P2] in your answer.
> 100 µM
